This collection of values is drawn from ChEMBL document CHEMBL6153025.

Test system: Pseudomonas aeruginosa
Test: Inhibition of pyocyanin production in Pseudomonas aeruginosa PAO1
Assay type: functional, organism-based
MEASUREMENT LABEL: pIC50
Scale for pIC50: -log10 of concentration given in mol/L; no unit attached.

[in] Quick one: pIC50 of `O=C(/C=C/c1ccc(O)c(O)c1)OCCc1ccc(Br)cc1` ?
[out] 4.70

----------
Test system: Pseudomonas aeruginosa
Assay: Downregulation of lasB mRNA expression in Pseudomonas aeruginosa PAO1 incubated for 4 hrs by RT-qPCR analysis
Assay type: functional, organism-based
Settings: PAO1, 4 h
MEASUREMENT LABEL: pIC50
Scale for pIC50: -log10 of concentration given in mol/L; no unit attached.

[in] Quick one: pIC50 of `CCOP(=O)(NCCCCOc1cc(O)c2c(=O)cc(-c3ccccc3)oc2c1)OCC` ?
[out] 4.00

----------
Test system: Pseudomonas aeruginosa
Test: Downregulation of lasR mRNA expression in Pseudomonas aeruginosa PAO1 incubated for 4 hrs by RT-qPCR analysis
Type: functional, organism-based
Settings: PAO1, 4 h
MEASUREMENT LABEL: pIC50
Scale for pIC50: -log10 of concentration given in mol/L; no unit attached.

[in] Quick one: pIC50 of `CCOP(=O)(NCCCCOc1cc(O)c2c(=O)cc(-c3ccccc3)oc2c1)OCC` ?
[out] 4.00

----------
System: Pseudomonas aeruginosa
Test: Downregulation of rhlI mRNA expression in Pseudomonas aeruginosa PAO1 incubated for 4 hrs by RT-qPCR analysis
Type: functional, organism-based
Details: PAO1, 4 h
MEASUREMENT LABEL: pIC50
Scale for pIC50: -log10 of concentration given in mol/L; no unit attached.

[in] Quick one: pIC50 of `CCOP(=O)(NCCCCOc1cc(O)c2c(=O)cc(-c3ccccc3)oc2c1)OCC` ?
[out] 4.00

----------
Target: Transcriptional activator protein LasR (Pseudomonas aeruginosa (strain ATCC 15692 / PAO1 / 1C / PRS 101 / LMG12228))
Experiment: Inhibition of LasR-mediated quorum sensing system in Pseudomonas aeruginosa PAO1 at 128 ug/ml relative to control
Conditions: dose 128.0 µg/ml
Reported inhibition values are given for each entry in this list.
Give me the value, and tack the unit on after it.

Answered examples (4):
[in] Quick one: inhibition of O=C(CC1CCC(F)CC1)Oc1cccc([N+](=O)[O-])c1 (stereo not given) ?
[out] 50.2%

[in] Quick one: `O=C(CN1CCOCC1)Oc1ccccc1[N+](=O)[O-]`
[out] 50.2%

[in] Quick one: `O=C(Oc1cccc([N+](=O)[O-])c1)C(=O)N1CCOCC1`
[out] 50.2%

[in] Quick one: `O=C(CN1CCOCC1)Oc1ccc([N+](=O)[O-])cc1`
[out] 82.3%

# evaluate next
[in] Quick one: inhibition of `O=C(CN1CCOCC1)Nc1cccc([N+](=O)[O-])c1` ?
[out] 45.1%

----------
Target: Transcriptional activator protein LasR (Pseudomonas aeruginosa (strain ATCC 15692 / PAO1 / 1C / PRS 101 / LMG12228)) (UniProt P25084)
Sequence (P25084 whole entry): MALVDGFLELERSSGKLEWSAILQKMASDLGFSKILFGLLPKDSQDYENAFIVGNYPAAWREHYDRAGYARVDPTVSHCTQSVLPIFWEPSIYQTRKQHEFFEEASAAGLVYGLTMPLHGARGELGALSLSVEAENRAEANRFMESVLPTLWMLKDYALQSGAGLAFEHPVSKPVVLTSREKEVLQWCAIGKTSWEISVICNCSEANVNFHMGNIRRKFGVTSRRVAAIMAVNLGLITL
Assay: Inhibition of LasR-mediated quorum sensing system in Pseudomonas aeruginosa PAO1 at 128 ug/ml relative to control
Conditions: dose 128.0 µg/ml
Everything with inhibition lower than 60% is not satisfied; everything else, including exactly 60%, is satisfied.

[in] Could you tell me if the measured inhibition of `CN1CCN(CC(=O)Oc2cccc([N+](=O)[O-])c2)CC1` reaches 60% or more?
[out] satisfied

[in] Quick one: `O=C(OCCN1CCOCC1)c1cccc([N+](=O)[O-])c1`
[out] satisfied

[in] Quick one: `O=C(CCN1CCOCC1)Oc1cccc([N+](=O)[O-])c1`
[out] satisfied

[in] Quick one: `O=C(CN1CCSCC1)Oc1cccc([N+](=O)[O-])c1`
[out] satisfied

[in] Quick one: `CC(C)(C)c1cccc(OC(=O)CN2CCOCC2)c1`
[out] not satisfied
